# MIC per record follows
# Tested on: P. aeruginosa 4au542
# ASSAY_INFO: MIC
# ASSAY_CONTEXT: Pseudomonas aeruginosa, 4AU542, P. aeruginosa 4au542; Table 7
The reply should contain only the number, in µg/mL.

compound="CC(=O)Oc1ccc(C(=O)NNC(=O)C(C)(C)ON=C(C(=O)NC2C(=O)N3C(C(=O)O)=C(CSc4c(C)c(C)nc5c(C(=O)O)cnn45)CS[C@H]23)c2csc(N)n2)cc1OC(C)=O (stereo partly shown)" assay_target="P. aeruginosa 4au542" experimental_readout=MIC assay_result=0.78

// Cc1cc(SCC2=C(C(=O)O)N3C(=O)C(NC(=O)C(=NOC(C)(C)C(=O)NNC(=O)c4ccc(O)c(O)c4)c4csc(N)n4)[C@H]3SC2)n2nc(C)cc2n1 (stereo partly shown) : MIC value = 0.1

Per the record, CC(=O)Oc1ccc(C(=O)NNC(=O)C(C)(C)ON=C(C(=O)NC2C(=O)N3C(C(=O)O)=C(CSc4cc(C)nc5nc(C(=O)O)nn45)CS[C@H]23)c2csc(N)n2)cc1OC(C)=O (stereo partly shown) has MIC of 0.2

compound CC(=O)Oc1ccc(C(=O)NNC(=O)C(C)(C)ON=C(C(=O)NC2C(=O)N3C(C(=O)O)=C(CSc4ccnc5nc(C(=O)O)nn45)CS[C@H]23)c2csc(N)n2)cc1OC(C)=O (stereo partly shown) , MIC observed: 0.39
